Biological target: native coniferin beta-glucosidase (CBG) purified from pine xylem (Pinus contorta, UniProt Q9ZT64)
Construct: from tissue; host or cells: Pinus contorta xylem
Sequence (Q9ZT64 24-513): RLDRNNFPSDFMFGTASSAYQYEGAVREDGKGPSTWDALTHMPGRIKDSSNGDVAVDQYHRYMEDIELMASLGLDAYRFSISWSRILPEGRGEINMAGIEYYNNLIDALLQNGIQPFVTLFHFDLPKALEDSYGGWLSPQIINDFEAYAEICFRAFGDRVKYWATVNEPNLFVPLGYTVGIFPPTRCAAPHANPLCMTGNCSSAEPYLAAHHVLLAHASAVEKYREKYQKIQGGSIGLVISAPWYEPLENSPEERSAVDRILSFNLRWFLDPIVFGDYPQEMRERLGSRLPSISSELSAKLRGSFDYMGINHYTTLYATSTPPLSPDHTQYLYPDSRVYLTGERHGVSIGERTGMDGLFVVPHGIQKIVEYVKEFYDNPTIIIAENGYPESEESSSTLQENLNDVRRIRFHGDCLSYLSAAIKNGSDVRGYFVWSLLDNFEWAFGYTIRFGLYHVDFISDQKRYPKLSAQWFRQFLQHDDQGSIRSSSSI
Test: β-glucosidase assay, substrate specificity of coniferin β-glucosidase purified from pine xylem
Type: biochemical
Settings: substrate hydrolysis relative to coniferin; 100% activity represents 14pKat; 2 mM glucoside substrate, 0.2M MES pH 5.5, 30° C., 30 min
measured.parameter: Relative activity, Native CBG (%)
Use % as the unit, but write only the number.

COc1cc(/C=C/CO)ccc1O[C@@H]1O[C@H](CO)[C@@H](O)[C@H](O)[C@H]1O [coniferin] :: 100
O=[N+]([O-])c1ccc(O[C@@H]2O[C@H](CO)[C@@H](O)[C@H](O)[C@H]2O)cc1 [4-nitrophenyl-β-glucoside, 4-nitrophenyl β-glucoside] :: 30

Query Relative activity, Native CBG for COc1cc(/C=C/CO)cc(OC)c1O[C@@H]1O[C@H](CO)[C@@H](O)[C@H](O)[C@H]1O [syringin]
51

Give recorded Relative activity, Native CBG. O=[N+]([O-])c1ccccc1O[C@@H]1O[C@H](CO)[C@@H](O)[C@H](O)[C@H]1O [2-nitrophenyl-β-glucoside, 2-nitrophenyl β-glucoside]
51

Give the value of Relative activity, Native CBG reported for the following: Cc1cc(=O)oc2cc(O[C@@H]3O[C@H](CO)[C@@H](O)[C@H](O)[C@H]3O)ccc12 [4-methyl umbelliferyl-β-glucoside, 4-methylumbelliferyl β-glucoside]
18

====

target: E. coli-expressed (recombinant) coniferin beta-glucosidase (CBG) (Pinus contorta); construct: coding region for the mature protein (i.e. excluding the signal peptide) was amplified; Met-Ala-Ser (three non-CBG vector residues) (N); made in house; host or cells: E. coli BL21 (DE3), vector pET21a; assay: β-glucosidase assay, substrate specificity of E. coli-expressed CBG-cDNA; format: biochemical; conditions: substrate hydrolysis relative to coniferin; 100% activity represents 22pKat; 2 mM glucoside substrate, 0.2M MES pH 5.5, 30° C., 30 min
measured.parameter: Relative activity, E. coli CBG (%)
The response must be a number in % with no trailing unit.

O=[N+]([O-])c1ccc(O[C@@H]2O[C@H](CO)[C@@H](O)[C@H](O)[C@H]2O)cc1 [4-nitrophenyl-β-glucoside, 4-nitrophenyl β-glucoside] :: 35
O=[N+]([O-])c1ccccc1O[C@@H]1O[C@H](CO)[C@@H](O)[C@H](O)[C@H]1O [2-nitrophenyl-β-glucoside, 2-nitrophenyl β-glucoside] :: 50
Cc1cc(=O)oc2cc(O[C@@H]3O[C@H](CO)[C@@H](O)[C@H](O)[C@H]3O)ccc12 [4-methyl umbelliferyl-β-glucoside, 4-methylumbelliferyl β-glucoside] :: 20
COc1cc(/C=C/CO)ccc1O[C@@H]1O[C@H](CO)[C@@H](O)[C@H](O)[C@H]1O :: 100

For the compound COc1cc(/C=C/CO)cc(OC)c1O[C@@H]1O[C@H](CO)[C@@H](O)[C@H](O)[C@H]1O , give its measured Relative activity, E. coli CBG value.
65
